List of IC50 values.
Test target: Phospholipase A2 (Naja mossambica mossambica)
Assay protocol: Phospholipase A2 inhibition using mixed micelles pH-stat assay and 14 kDa-Phospholipase A2 from Naja mossambica mossambica
Reported property: IC50 (µM)

{"Compound": "COP(=O)(O)OC[C@@H](CCCCCCCOC(=O)CCC(=O)OC1CCC2(C)C(=CCC3C2CCC2(C)C(C(C)CCCC(C)C)CCC32)C1)NC(C)=O (stereo partly specified)", "Reported property": "IC50", "Test value": 2.3}
{"Compound": "CCCCCCCCCCCCCCCCOCCOCCCCCCC[C@H](COP(=O)(O)OC)NC(C)=O", "Reported property": "IC50", "Test value": 1.7}
{"Compound": "COP(=O)(O)OC[C@@H](CCCCCCCO)NC(C)=O", "Reported property": "IC50", "Test value": 350}
{"Compound": "CCCCCCCC(=O)OCCCCCCC[C@H](COP(=O)(O)OC)NC(C)=O", "Reported property": "IC50", "Test value": 3.1}
{"Compound": "CCCCCCCCCCCCCCCC(=O)OCCCCCCC[C@H](COP(=O)(O)OC)NC(C)=O", "Reported property": "IC50", "Test value": 5}
{"Compound": "CCCCCCCCCCCCCCCC[C@H](COP(=O)(O)OC)NC(C)=O", "Reported property": "IC50", "Test value": 3.4}
